The origin of these recorded values is ChEMBL document CHEMBL3137667.

Test: Highest frequency of moderate liver toxicity observed during clinical trials, expressed as a percentage. [column '% BIOL' in source]
Applied Conditions: human
Hepatotoxicity (moderate) listing for selected compounds.

Record excerpt, results attached:
Compound | Reported Metric | Endpoint Result
CC[C@@]1(O)C[C@H](O[C@H]2C[C@H](N(C)C)[C@H](O[C@H]3C[C@H](O)[C@H](O[C@H]4CCC(=O)[C@H](C)O4)[C@H](C)O3)[C@H](C)O2)c2c(cc3c(c2O)C(=O)c2c(O)cccc2C3=O)[C@H]1C(=O)OC | Hepatotoxicity (moderate) | 26.7%
CC(=O)OCC1=C(C(=O)O)N2C(=O)[C@@H](NC(=O)CSc3ccncc3)[C@H]2SC1 | Hepatotoxicity (moderate) | 0%
Cc1c(O)cccc1C(=O)N[C@@H](CSc1ccccc1)[C@H](O)CN1C[C@H]2CCCC[C@H]2C[C@H]1C(=O)NC(C)(C)C | Hepatotoxicity (moderate) | 27%

Name the recorded Hepatotoxicity (moderate) of the item O=C(O[C@@H]1C[C@@H]2C[C@H]3C[C@H](C1)N2CC3=O)c1c[nH]c2ccccc12 in your answer. 6.7%

Specify measured Hepatotoxicity (moderate) for O=C(CCBr)N1CCN(C(=O)CCBr)CC1 . 0%

Please give the documented Hepatotoxicity (moderate) of CN(C)CCCN1c2ccccc2C(C)(C)c2ccccc21 0%

Fill in reported Hepatotoxicity (moderate) for this entry: CC(=O)Nc1ccc(/C=N/NC(N)=S)cc1 18%

Tell me its Hepatotoxicity (moderate) given CC(=O)/N=c1/sc(S(N)(=O)=O)nn1C [METHAZOLAMIDE] as the entry. 0%

----------
Test: Highest frequency of moderate liver toxicity observed during clinical trials, expressed as a percentage. [column '% BIOL' in source]
Applied Conditions: human, Liver
Overview of recorded Hepatotoxicity (moderate) for various compounds
Numbers only here, please. The scale is %.

Provide only the value of recorded Hepatotoxicity (moderate) for COc1cc2nc(N3CCN(C(=O)c4ccco4)CC3)nc(N)c2cc1OC 0

// fetch Hepatotoxicity (moderate) given entry Nc1ncn([C@@H]2O[C@H](CO)[C@@H](O)[C@H]2O)c(=O)n1 62.5

Report measured Hepatotoxicity (moderate); entry is CNCCCN1c2ccccc2CCc2ccccc21 8.7

Tell me measured Hepatotoxicity (moderate) for O=C1Nc2ccc(Cl)cc2C(c2ccccc2)=NC1O (stereo not given) please. 0

Name the recorded Hepatotoxicity (moderate) of the item c1ccc([C@H]2CN3CCSC3=N2)cc1 in your answer. 61.2

Given CN[C@H]1CC[C@@H](c2ccc(Cl)c(Cl)c2)c2ccccc21 , respond with its Hepatotoxicity (moderate). 0.8

Return Hepatotoxicity (moderate) (reported value) for this compound: Cc1ncc(CO)c(CO)c1O 6

Return Hepatotoxicity (moderate) for the following compound: CC(C)Cc1ccc(C(C)C(=O)O)cc1 (stereo not given) 16

Please list Hepatotoxicity (moderate) recorded for the compound NC(N)=Nc1nc(CSCCC(N)=NS(N)(=O)=O)cs1 2.8

Return value of Hepatotoxicity (moderate) for input COc1c(N2C[C@@H]3CCCN[C@@H]3C2)c(F)cc2c(=O)c(C(=O)O)cn(C3CC3)c12 , no commentary. 6.9

----------
The reader will find reported Hepatotoxicity (choleostasis) values listed item by item below.
Applied Conditions: human

Below, each entry is followed by its recorded Hepatotoxicity (choleostasis) result.
Compound | Hepatotoxicity (choleostasis)
O=c1[nH]c(=O)n([C@H]2C[C@H](O)[C@@H](CO)O2)cc1I | 1
CCc1nc(N)nc(N)c1-c1ccc(Cl)cc1.Nc1ccc(S(=O)(=O)c2ccc(N)cc2)cc1 | 0
O=C(O)CCc1nc(-c2ccccc2)c(-c2ccccc2)o1 | 0
C[C@H]1O[C@H](O[C@H]2[C@H](O)[C@@H](O)[C@@H](O[C@H]3[C@H](O)[C@@H](O)C(O)O[C@@H]3CO)O[C@@H]2CO)[C@H](O)[C@@H](O)[C@@H]1N[C@H]1C=C(CO)[C@@H](O)[C@H](O)[C@H]1O (stereo partly drawn) | 0
COc1cc(C(=O)NCc2ccc(OCCN(C)C)cc2)cc(OC)c1OC [TRIMETHOBENZAMIDE] | 1
CN1C(=O)CCS(=O)(=O)C1c1ccc(Cl)cc1 (stereo not drawn) | 7
CO[C@H]1Cc2c(O)cc(O)cc2O[C@@H]1c1ccc(O)c(O)c1 | 0

Shift focus to the following entry.
Give recorded Hepatotoxicity (choleostasis). O=c1[nH]c(=O)n(C2CCCO2)cc1F (stereo not drawn) 0
